koff values for the binders below.
- tested_system: T1, canine NGF tagged at the C-terminus with the Flag tag (canine, UniProt A0A8I3PYI3 122-241)
- T1 construct: mature; Expressed with baculovirus technology; also called feline NGF (processed form identical)
- T1 sequence (A0A8I3PYI3 entry or part of it): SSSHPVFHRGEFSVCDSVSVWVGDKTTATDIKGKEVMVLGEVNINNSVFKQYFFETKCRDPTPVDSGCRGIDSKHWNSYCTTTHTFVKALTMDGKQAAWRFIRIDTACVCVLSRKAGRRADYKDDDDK
- assay_remarks: SPR off-rate assay, Fab-SASA on BSA chip
// return numeric value only (unit: s⁻¹, not printed)

Query: Reported koff, binder AHF17596 (Fab, V domains shown, not shown: small tags and cut ends) VH: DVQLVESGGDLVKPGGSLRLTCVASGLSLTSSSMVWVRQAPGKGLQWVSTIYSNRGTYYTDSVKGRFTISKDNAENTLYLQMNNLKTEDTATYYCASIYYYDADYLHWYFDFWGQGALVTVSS VL: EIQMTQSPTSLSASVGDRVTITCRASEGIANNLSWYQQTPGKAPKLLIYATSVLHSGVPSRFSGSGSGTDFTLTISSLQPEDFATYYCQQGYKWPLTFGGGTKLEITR : ____
Reply: 1.82e-05

Now take the following binder into account.
Query: Reported koff, binder AHF17592 (Fab, V domains shown, not shown: small tags and cut ends) VH: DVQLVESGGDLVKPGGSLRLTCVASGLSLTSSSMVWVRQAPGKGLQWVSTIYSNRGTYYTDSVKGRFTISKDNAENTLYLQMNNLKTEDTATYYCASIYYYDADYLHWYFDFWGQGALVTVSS VL: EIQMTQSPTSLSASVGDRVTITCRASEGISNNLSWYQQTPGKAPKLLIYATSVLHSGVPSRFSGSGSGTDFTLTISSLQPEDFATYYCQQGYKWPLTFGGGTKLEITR : ____
Reply: 1.46e-05
